Listing of entries alongside the reported pKi.
# target.or.test.system: purified human Factor XIa (Homo sapiens, UniProt P03951)
# Sequence (P03951 388-625 limits assumed): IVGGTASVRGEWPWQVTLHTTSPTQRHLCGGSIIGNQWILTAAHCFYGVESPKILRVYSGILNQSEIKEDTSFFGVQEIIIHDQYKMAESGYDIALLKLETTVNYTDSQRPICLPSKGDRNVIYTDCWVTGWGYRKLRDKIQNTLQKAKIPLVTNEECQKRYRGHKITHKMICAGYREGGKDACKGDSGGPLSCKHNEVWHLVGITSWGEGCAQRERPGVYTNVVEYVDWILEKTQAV
# Sequence (P03951 19-387 partner limits assumed): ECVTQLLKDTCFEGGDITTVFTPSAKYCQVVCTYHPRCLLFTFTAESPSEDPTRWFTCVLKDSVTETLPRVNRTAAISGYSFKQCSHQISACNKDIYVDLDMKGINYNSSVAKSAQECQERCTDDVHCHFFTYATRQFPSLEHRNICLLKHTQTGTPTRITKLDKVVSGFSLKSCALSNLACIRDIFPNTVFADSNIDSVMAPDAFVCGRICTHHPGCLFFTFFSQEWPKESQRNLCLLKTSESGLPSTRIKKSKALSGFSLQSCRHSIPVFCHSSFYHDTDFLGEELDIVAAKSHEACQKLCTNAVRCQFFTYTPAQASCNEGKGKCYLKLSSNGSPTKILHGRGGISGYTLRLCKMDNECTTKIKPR
pKi: −log10 of the molar value.

Consider the worked cases shown below.
COC(=O)Nc1ccc2c(c1)NC(=O)CCCCC[C@H](C(=O)N1CCC[C@@]3(C1)OC(=O)Nc1ccc(Cl)c(F)c13)c1cc-2ccn1 [Example 19b] :: < 6.06
COC(=O)Nc1ccc2c(c1)NC(=O)C(C)CCCC(C(=O)N1CCC[C@@]3(C1)OC(=O)Nc1ccc(Cl)cc13)c1cc-2ccn1 (single isomer, unassigned) [Example 15d] :: < 5.30

Turning to the following compound.
// lookup pKi for CCOC(=O)C1CCCCC(C(=O)N2CC[C@@]3(C2)OC(=O)Nc2ccc(Cl)c(F)c23)c2cc(ccn2)-c2cc(F)ccc2N1 (single isomer, unassigned) [Example 36a]
< 6.06
